- measurement-target: T1, CD71 apical domain (human, UniProt P02786 189-383, limits assumed)
- T1 construct: domain: apical domain
- T1 sequence (P02786 189-383 limits assumed): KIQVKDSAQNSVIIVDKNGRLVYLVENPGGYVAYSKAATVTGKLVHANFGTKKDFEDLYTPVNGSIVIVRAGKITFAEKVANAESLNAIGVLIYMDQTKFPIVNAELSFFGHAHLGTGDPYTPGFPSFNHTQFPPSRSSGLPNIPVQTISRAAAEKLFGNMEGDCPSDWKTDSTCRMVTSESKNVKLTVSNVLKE
- run-description: solution ELISA screen, signal ratio to HSA control
Would you kindly list apical domain:HSA for each of these binders?
API: value field is a number in ratio; no unit string.

Item: SEQ ID NO 250 (designed binder, not shown: small tags and cut ends) MLPAPKNLVVSRVTEDSARLSWTAPDAAFDSFYIAYAEPRPDGEAILLRVPGSERSYDLTGLKPGTEYSVLIHGVKGGLLSSPLYAKFTT | apical domain:HSA: 114

The binder identified as SEQ ID NO 235 (designed binder, not shown: small tags and cut ends) MLPAPKNLVVSRVTEDSARLSWTAPDAAFDSFFIGYLEPQPPGEAIQLTVPGSERSYDLTGLKPGTEYNVTIQGVKGGFPSLPLSADFTT registered its apical domain:HSA at 70.1

The reported value for SEQ ID NO 213 (designed binder, not shown: small tags and cut ends) MLPAPKNLVVSRVTEDSARLSWTAPDAAFDSFYIAYAEPRPDGEAILLGVPGSERSYDLTGLKPGTEYSVLIHGVKGGLLSSPLFTT in terms of apical domain:HSA is 28.9

Value of apical domain:HSA reported for the binder SEQ ID NO 219 (designed binder, not shown: small tags and cut ends) MLPAPKNLVVSRVTEDSARLSWTAPDAAFDSFYIAYAEPRPDGEAISLKVPGSERSYDLTGLKPGTEYSVLIHGVKGGLLSSPLEAIFTT is 418

// apical domain:HSA lookup, binder = SEQ ID NO 254 (designed binder, not shown: small tags and cut ends) MLPAPKNLVVSRVTEDSARLSWTAPDAAFDSFYIAYAEPRPDGEAILLAVPGSERSYDLTGLKPGTEYSVLIHGVKGGLLSSPLSAKFTT , result: 308

Lab note: SEQ ID NO 212 (designed binder, not shown: small tags and cut ends) MLPAPKNLVVSRVTEDSARLSWTAPDAAFDSFYIAYAEPRPDGEAIWLAVPGSERSYDLTGLKPGTEYSVLIHGVKGGLLSSPLHAQFTT gave apical domain:HSA of 292

Lab note: measured apical domain:HSA of SEQ ID NO 214 (designed binder, not shown: small tags and cut ends) MLPAPKNLVVSRVTEDSARLSWTAPDAAFDSFYIAYAEPRPDGEAIGLQVPGSERSYDLTGLKPGTEYSVLIHGVKGGLLSSPLCAEFTT was 143

apical domain:HSA reported for this binder SEQ ID NO 234 (designed binder, not shown: small tags and cut ends) MLPAPKNLVVSRVTEDSARLSWTAPDAAFDSFYIAYAEPRPDGEAIVLVVPGSERSYDLTGLKPGTEYSVLIHGVKGGLLSSPLSAIFTT : 338

Short answer for SEQ ID NO 203 (designed binder, not shown: small tags and cut ends) MLPAPKNLVVSRVTEDSARLSWTAPDAAFDSFFIGYLEPQPPGEAIVLLVPGSERSYDLTGLKPGTEYNVTIQGVKGGFPSVPLAAFFTT : apical domain:HSA was 219

From: patent US20220332795A1
